The reported numbers originate from patent US20160244437A1.

Below are compounds with their pIC50 as measured on human factor XIa (Homo sapiens, UniProt P03951).
Sequence (P03951 388-625 limits assumed): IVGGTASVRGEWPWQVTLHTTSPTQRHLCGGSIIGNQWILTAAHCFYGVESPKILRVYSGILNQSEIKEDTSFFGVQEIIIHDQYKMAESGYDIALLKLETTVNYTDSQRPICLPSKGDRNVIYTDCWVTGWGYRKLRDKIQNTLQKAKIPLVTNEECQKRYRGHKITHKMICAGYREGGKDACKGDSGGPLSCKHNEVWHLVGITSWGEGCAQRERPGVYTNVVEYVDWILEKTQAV
Sequence (P03951 19-387 partner limits assumed): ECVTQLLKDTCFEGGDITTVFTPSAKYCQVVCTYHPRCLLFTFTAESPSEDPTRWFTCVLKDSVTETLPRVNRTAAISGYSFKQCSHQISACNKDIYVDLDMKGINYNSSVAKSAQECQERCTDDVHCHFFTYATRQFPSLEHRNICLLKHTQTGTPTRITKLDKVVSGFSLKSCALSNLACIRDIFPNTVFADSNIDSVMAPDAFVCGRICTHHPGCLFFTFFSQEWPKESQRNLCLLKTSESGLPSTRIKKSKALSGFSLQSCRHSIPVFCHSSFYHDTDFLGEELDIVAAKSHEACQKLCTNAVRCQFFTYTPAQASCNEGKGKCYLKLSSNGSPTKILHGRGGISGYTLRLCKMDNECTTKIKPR
pIC50: −log10 of the molar value. Where a name gives a salt, the structure may show the parent alone.
Readout type: pIC50

[a] Cc1ccc(C(=O)NCCOCCOCCO)cc1-c1cccc(C[C@H](NC(=O)[C@H]2CC[C@H](CN)CC2)C(=O)Nc2ccc(-c3nnn[nH]3)cc2)c1 [Example 21, hydrochloride]
[b] CCN(CC)CCNC(=O)c1cccc(-c2cccc(C[C@H](NC(=O)[C@H]3CC[C@H](CN)CC3)C(=O)Nc3ccc(-c4nnn[nH]4)cc3)c2)c1 [Example 34, hydrochloride]
[c] COc1ccc(-c2cccc(C[C@H](NC(=O)[C@H]3CC[C@H](CN)CC3)C(=O)Nc3ccc(-c4nnn[nH]4)cc3)c2)cc1S(=O)(=O)N1CCOCC1 [Example 8, hydrochloride]
Write the entries in order, lowest recorded pIC50 first. Respond with an ordered listing of the labels, as requested.
b, c, a
(b: 8.07, c: 8.42, a: 8.64)
